Entries and their Fold Activity values follow.
test.method.notes: Saturation mutagenesis of SEQ ID NO:109: dicamba decarboxylation activity of point mutants (CO2 released), fold of backbone (Tables 7, 8, Megatable 1)
particulars: decarboxylation activity (CO2 released) of point mutant vs unmutated backbone protein; backbone SEQ ID NO: 109
State the answer as a number, implicitly in fold.

# return recorded Fold Activity for entry 149 (protein, Dicamba decarboxylase variant) MAQGKVALEEHFAIPETLQDSAGFVPSEYLKELQHRLLDIQDTRLKLMDAHGIETMILSLAAPAVQAIPDRRKAIEIARRANDMLAEECAKRPDRFLAFAALPLQDPDAATEELQRCVNTLGFVGALVNGFSVEGDGQTPLYYDLPQYRPFWGEVEKLDVPFYLHPRNPLPQDSRIYDGHPWLLGPTWAFAQETAVHALRLMASGLFDEHPRLNIILGHLGEGLPYMMYRIDHRIAWVHEPPRYPAKRRFMDYFNENFHITTSGNFRTQTLIDAILEIGADRILFSTDWPFENIDHAADWFNATSIAEADRVKIGRTNARRLFKLDGD
1.6

# return recorded Fold Activity for entry 34 (protein, Cupriavidus necator) MAQGKIGLEEHFAIPETLNDSAGFVPGDYWKELSRRLLDIQDDRLRQMDENGMEMMLLSLNAPAVQAVPDRKQACELAVRANDFLAEQVSRRPDRFQALAALPLQDPDFATVELTRCVNELGMRGALVNGFSQIDTPDNVVYYDAPQYASFWAAVEKLDVPFYLHPRNPIASWAQIYDGHPWLLGPTWAFGQETAVHALRLMASGLFDRHPALQIVLGHLGEGLPYSLWRIDNRNAWVKAPKTHPAKKTFRHYFQQNFHLTTSGNFHNQTLIDAILEIGADRILFSTDWPFENIDHAAKWFDSASISEADRTKIGRTNAMKLFKLVA
1.6
